This section presents molecules with their documented melting point values.
metric name: melting point

>>> val("Cc1cc2oc(C(=O)Nc3ccc(S(N)(=O)=O)cc3)cc(=O)c2cc1C [5e]")
"310 to 312 °C"
>>> val("Cc1ccc2c(=O)cc(C(=O)Nc3ccc(S(N)(=O)=O)cc3)oc2c1 [5c]")
"309 to 311 °C"
>>> val("Cc1ccc2c(=O)cc(C(=O)Nc3ccc(S(N)(=O)=O)cc3)oc2c1C [5f]")
"328 to 330 °C"
>>> val("Cc1cc(C)c2oc(C(=O)NCCc3ccc(S(N)(=O)=O)cc3)cc(=O)c2c1 [6j]")
"283 to 285 °C"
>>> val("Cc1ccc2c(=O)cc(C(=O)NCCc3ccc(S(N)(=O)=O)cc3)oc2c1C [6i]")
"280 to 282 °C"
>>> val("Cc1ccc2c(=O)cc(C(=O)NCCc3ccc(S(N)(=O)=O)cc3)oc2c1 [6f]")
"253 to 255 °C"
>>> val("CCc1ccc2oc(C(=O)NCCc3ccc(S(N)(=O)=O)cc3)cc(=O)c2c1 [6g]")
"257 to 259 °C"

###

Examples of compounds with documented melting point follow.
metric name: melting point

>>> val("NS(=O)(=O)c1ccc(CCNC(=O)c2cc(=O)c3ccccc3o2)cc1")
"248 to 250 °C"
>>> val("Cc1ccc2oc(C(=O)Nc3ccc(S(N)(=O)=O)cc3)cc(=O)c2c1")
"307 to 308 °C"
>>> val("NS(=O)(=O)c1ccc(CNC(=O)c2cc(=O)c3ccccc3o2)cc1")
"284 to 286 °C"
>>> val("NS(=O)(=O)c1ccc(NC(=O)c2cc(=O)c3cc(Cl)ccc3o2)cc1")
"296 to 298 °C"
>>> val("Cc1ccc2oc(C(=O)NCCc3ccc(S(N)(=O)=O)cc3)cc(=O)c2c1")
"257 to 259 °C"

###

Collected melting point values appear next to each entry.
metric name: melting point

>>> val("Cc1cc2oc(C(=O)Nc3ccc(S(N)(=O)=O)cc3)cc(=O)c2cc1Cl")
"305 to 307 °C"
>>> val("NS(=O)(=O)c1ccc(CNC(=O)c2cc(=O)c3cc(Cl)ccc3o2)cc1")
"299 to 301 °C"
>>> val("Cc1cc(C)c2c(=O)cc(C(=O)Nc3ccc(S(N)(=O)=O)cc3)oc2c1")
"304 to 306 °C"
>>> val("NS(=O)(=O)c1ccc(NC(=O)c2cc(=O)c3ccccc3o2)cc1")
"296 to 298 °C"
>>> val("Cc1cc2oc(C(=O)NCCc3ccc(S(N)(=O)=O)cc3)cc(=O)c2cc1C")
"282 to 284 °C"
>>> val("NS(=O)(=O)c1ccc(CCNC(=O)c2cc(=O)c3cc(Cl)ccc3o2)cc1")
"285 to 287 °C"
>>> val("CCc1ccc2oc(C(=O)Nc3ccc(S(N)(=O)=O)cc3)cc(=O)c2c1")
"297 to 299 °C"
>>> val("Cc1cc(C)c2oc(C(=O)Nc3ccc(S(N)(=O)=O)cc3)cc(=O)c2c1")
"309 to 311 °C"
>>> val("Cc1ccc2oc(C(=O)NCc3ccc(S(N)(=O)=O)cc3)cc(=O)c2c1")
"293 to 295 °C"

###

Molecular target: hCA II (Homo sapiens, UniProt P00918)
Experiment: Stopped-flow CA-catalyzed CO2 hydration inhibition assay
Conditions: stopped flow technique, mean from three different assays, recombinant enzyme, pH 7.4
metric name: Ki (nM)

>>> val("NS(=O)(=O)c1ccc(NC(=O)c2cc(=O)c3ccccc3o2)cc1 [5a]")
35.1
>>> val("NS(=O)(=O)c1ccc(CCNC(=O)c2cc(=O)c3cc(Cl)ccc3o2)cc1 [6k]")
91.6
>>> val("Cc1cc(C)c2oc(C(=O)NCCc3ccc(S(N)(=O)=O)cc3)cc(=O)c2c1 [6j]")
143
>>> val("Cc1cc2oc(C(=O)Nc3ccc(S(N)(=O)=O)cc3)cc(=O)c2cc1C [5e]")
311
>>> val("Cc1ccc2oc(C(=O)Nc3ccc(S(N)(=O)=O)cc3)cc(=O)c2c1 [5b]")
95.9
>>> val("NS(=O)(=O)c1ccc(CCNC(=O)c2cc(=O)c3ccccc3o2)cc1 [6d]")
16.6
>>> val("Cc1ccc2oc(C(=O)NCc3ccc(S(N)(=O)=O)cc3)cc(=O)c2c1 [6b]")
81.7
>>> val("NS(=O)(=O)c1ccc(NC(=O)c2cc(=O)c3cc(Cl)ccc3o2)cc1 [5i]")
66.2
>>> val("Cc1ccc2c(=O)cc(C(=O)Nc3ccc(S(N)(=O)=O)cc3)oc2c1 [5c]")
39.5
>>> val("Cc1cc2oc(C(=O)Nc3ccc(S(N)(=O)=O)cc3)cc(=O)c2cc1Cl [5j]")
901
>>> val("Cc1ccc2c(=O)cc(C(=O)NCCc3ccc(S(N)(=O)=O)cc3)oc2c1C [6i]")
39.2
>>> val("Cc1cc(C)c2c(=O)cc(C(=O)Nc3ccc(S(N)(=O)=O)cc3)oc2c1 [5g]")
61.4
>>> val("Cc1cc(C)c2oc(C(=O)Nc3ccc(S(N)(=O)=O)cc3)cc(=O)c2c1 [5h]")
46.6
>>> val("NS(=O)(=O)c1ccc(CNC(=O)c2cc(=O)c3cc(Cl)ccc3o2)cc1 [6c]")
679
>>> val("CCc1ccc2oc(C(=O)NCCc3ccc(S(N)(=O)=O)cc3)cc(=O)c2c1 [6g]")
280
>>> val("Cc1ccc2c(=O)cc(C(=O)Nc3ccc(S(N)(=O)=O)cc3)oc2c1C [5f]")
9.3
>>> val("Cc1cc2oc(C(=O)NCCc3ccc(S(N)(=O)=O)cc3)cc(=O)c2cc1C [6h]")
51.2
>>> val("Cc1ccc2oc(C(=O)NCCc3ccc(S(N)(=O)=O)cc3)cc(=O)c2c1 [6e]")
36.4
>>> val("NS(=O)(=O)c1ccc(CNC(=O)c2cc(=O)c3ccccc3o2)cc1 [6a]")
219
>>> val("Cc1ccc2c(=O)cc(C(=O)NCCc3ccc(S(N)(=O)=O)cc3)oc2c1 [6f]")
7.5

###

Biological target: hCA IX (Homo sapiens, UniProt Q16790)
Assay: Stopped-flow CA-catalyzed CO2 hydration inhibition assay
Details: stopped flow technique, mean from three different assays, recombinant enzyme, pH 7.4
Listing of entries alongside the reported log10 Ki.
metric name: log10 Ki (log10 of the value in nM)

>>> val("Cc1cc(C)c2oc(C(=O)NCCc3ccc(S(N)(=O)=O)cc3)cc(=O)c2c1 [6j]")
1.96
>>> val("Cc1ccc2oc(C(=O)NCCc3ccc(S(N)(=O)=O)cc3)cc(=O)c2c1 [6e]")
1.86
>>> val("Cc1cc2oc(C(=O)NCCc3ccc(S(N)(=O)=O)cc3)cc(=O)c2cc1C [6h]")
1.71
>>> val("NS(=O)(=O)c1ccc(CCNC(=O)c2cc(=O)c3ccccc3o2)cc1 [6d]")
1.91
>>> val("Cc1ccc2c(=O)cc(C(=O)Nc3ccc(S(N)(=O)=O)cc3)oc2c1C [5f]")
1.29
>>> val("NS(=O)(=O)c1ccc(NC(=O)c2cc(=O)c3cc(Cl)ccc3o2)cc1 [5i]")
1.71
>>> val("Cc1ccc2oc(C(=O)Nc3ccc(S(N)(=O)=O)cc3)cc(=O)c2c1 [5b]")
1.89
>>> val("Cc1cc2oc(C(=O)Nc3ccc(S(N)(=O)=O)cc3)cc(=O)c2cc1C [5e]")
2.48
>>> val("Cc1ccc2c(=O)cc(C(=O)NCCc3ccc(S(N)(=O)=O)cc3)oc2c1 [6f]")
1.81
>>> val("Cc1cc(C)c2oc(C(=O)Nc3ccc(S(N)(=O)=O)cc3)cc(=O)c2c1 [5h]")
1.35
>>> val("Cc1cc(C)c2c(=O)cc(C(=O)Nc3ccc(S(N)(=O)=O)cc3)oc2c1 [5g]")
1.74

###

Molecular target: hCA I (Homo sapiens, UniProt P00915)
Sequence (P00915 whole entry): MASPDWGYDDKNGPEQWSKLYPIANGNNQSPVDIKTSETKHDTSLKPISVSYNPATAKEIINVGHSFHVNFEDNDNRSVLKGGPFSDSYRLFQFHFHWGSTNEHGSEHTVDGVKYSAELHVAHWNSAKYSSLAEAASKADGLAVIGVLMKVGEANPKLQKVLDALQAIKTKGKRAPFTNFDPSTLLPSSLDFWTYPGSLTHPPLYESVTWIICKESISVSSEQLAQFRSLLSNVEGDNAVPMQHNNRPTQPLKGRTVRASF
Assay: Stopped-flow CA-catalyzed CO2 hydration inhibition assay
Conditions: stopped flow technique, mean from three different assays, recombinant enzyme, pH 7.4
param class (str): category from Ki; see ranges c1 = under 500 nM, c2 = from 500 nM up to 1000 nM, c3 = 1000 nM and over

>>> class("Cc1cc2oc(C(=O)Nc3ccc(S(N)(=O)=O)cc3)cc(=O)c2cc1Cl")
"c2"
>>> class("Cc1cc(C)c2c(=O)cc(C(=O)Nc3ccc(S(N)(=O)=O)cc3)oc2c1")
"c2"
>>> class("Cc1ccc2c(=O)cc(C(=O)NCCc3ccc(S(N)(=O)=O)cc3)oc2c1")
"c1"
>>> class("Cc1ccc2oc(C(=O)NCc3ccc(S(N)(=O)=O)cc3)cc(=O)c2c1")
"c2"
>>> class("Cc1ccc2c(=O)cc(C(=O)Nc3ccc(S(N)(=O)=O)cc3)oc2c1C")
"c1"
>>> class("Cc1ccc2oc(C(=O)Nc3ccc(S(N)(=O)=O)cc3)cc(=O)c2c1")
"c3"
>>> class("NS(=O)(=O)c1ccc(NC(=O)c2cc(=O)c3ccccc3o2)cc1")
"c2"
>>> class("NS(=O)(=O)c1ccc(CNC(=O)c2cc(=O)c3ccccc3o2)cc1")
"c2"
>>> class("Cc1ccc2oc(C(=O)NCCc3ccc(S(N)(=O)=O)cc3)cc(=O)c2c1")
"c1"
>>> class("Cc1ccc2c(=O)cc(C(=O)NCCc3ccc(S(N)(=O)=O)cc3)oc2c1C")
"c1"
>>> class("Cc1cc2oc(C(=O)NCCc3ccc(S(N)(=O)=O)cc3)cc(=O)c2cc1C")
"c2"
>>> class("Cc1ccc2c(=O)cc(C(=O)Nc3ccc(S(N)(=O)=O)cc3)oc2c1")
"c3"
>>> class("Cc1cc2oc(C(=O)Nc3ccc(S(N)(=O)=O)cc3)cc(=O)c2cc1C")
"c3"
>>> class("Cc1cc(C)c2oc(C(=O)NCCc3ccc(S(N)(=O)=O)cc3)cc(=O)c2c1")
"c3"
>>> class("NS(=O)(=O)c1ccc(CCNC(=O)c2cc(=O)c3cc(Cl)ccc3o2)cc1")
"c2"
>>> class("NS(=O)(=O)c1ccc(CNC(=O)c2cc(=O)c3cc(Cl)ccc3o2)cc1")
"c3"
>>> class("NS(=O)(=O)c1ccc(CCNC(=O)c2cc(=O)c3ccccc3o2)cc1")
"c1"
>>> class("NS(=O)(=O)c1ccc(NC(=O)c2cc(=O)c3cc(Cl)ccc3o2)cc1")
"c3"
